experiment: yeast display, Sf9 membrane polyspecificity reagent, FACS + sequencing; frameworks hold sequencing errors
measure: polyreactivity (PSR sort gate)

QVQLVESGGGLVQAGGSLRLSCAASGSTFPPNAMGWYRQAPGKERELVAGINGSGGRTYYADSVKGRFTISRDNAKNTVYLQLNCMKPEDTAVYYCAAEGTTIWFDLTYDDWYEYYSWGQGTQVTVSS = high polyreactivity
QVQLVESGGGLVQAGGSLRLSCAASGLIFSVNAMGWYRQAPGKERELVAAITWSSGRTYYADSVKGRFTISRDNAKNTVYLQMNSLKPEDTAVYYCAAVSYWYGQMYYWGHGTQVTVSS = high polyreactivity

====

test: yeast display, Sf9 membrane polyspecificity reagent, FACS + sequencing; frameworks hold sequencing errors
measure: polyreactivity (PSR sort gate)

As a guide, the following entries are already answered.
QVQLEESGGGLVQAGGSLRLSCAASGYIFDYNAMGWYRQAPGKERELVAVISRGGRTYYADSVKGRFTISRDNAKNTVYLQMNILKPEDTAVYYCAADRQSYPYDYWGQGTQVTVSS = high polyreactivity
HVQLVESAGGLVQARGSLRLSCAASGSIFVTYAMGWYRQARGKERELVATITYSGGSTSYADSVKGRFTISRDNAKITVYLQMNSLKPDDTAVYFCAADLDSDFDYWGQGTQVTVSS = low polyreactivity
QVEHVESGGGLVQAGGSLRLSCAASGSIIVDNAMGWSRQAPGKDRELVAAISVGGGRTYYADSVKGRFTISRDNAKNTVYLQMNSLKPEDTAVYYCNRVPTRGPHGVWFGYCGQGTQVTVSS = high polyreactivity
QVQLVESGGGLVQAGGSLRLSCAASGSTFGGNDMGWYRQAPGKERELVAAISSGTSTNYADSVKGRFTISRDNAKNTVYLQMNSLKPEDTAVYYCNAGFWYRRTYDYWGQGTQVTVSS = low polyreactivity

(Q) What measured polyreactivity (PSR sort gate) goes with QVQLVESGGGVDQAGGSLRLSCAASGLSLRVNVMGWYRPAPGKERELVAAISGGGRTYYADSVKGRFTISRDNAKNTVYLQMNSLKPEDTAVYYCATVRRRLSLTYDYWGQGTQVTVSS ?
(A) high polyreactivity
